molecular target: Ubiquitin carboxyl-terminal hydrolase 8 (Homo sapiens) (UniProt P40818); experiment: blocks human USP8 ubiquitin-rhodamine cleavage (AID 1645853); details: purified USP8, Ub-rhodamine cleavage fluorescence, 30 min; at 20 µM; stronger effect = higher value
Sequence (P40818 whole entry, looked up): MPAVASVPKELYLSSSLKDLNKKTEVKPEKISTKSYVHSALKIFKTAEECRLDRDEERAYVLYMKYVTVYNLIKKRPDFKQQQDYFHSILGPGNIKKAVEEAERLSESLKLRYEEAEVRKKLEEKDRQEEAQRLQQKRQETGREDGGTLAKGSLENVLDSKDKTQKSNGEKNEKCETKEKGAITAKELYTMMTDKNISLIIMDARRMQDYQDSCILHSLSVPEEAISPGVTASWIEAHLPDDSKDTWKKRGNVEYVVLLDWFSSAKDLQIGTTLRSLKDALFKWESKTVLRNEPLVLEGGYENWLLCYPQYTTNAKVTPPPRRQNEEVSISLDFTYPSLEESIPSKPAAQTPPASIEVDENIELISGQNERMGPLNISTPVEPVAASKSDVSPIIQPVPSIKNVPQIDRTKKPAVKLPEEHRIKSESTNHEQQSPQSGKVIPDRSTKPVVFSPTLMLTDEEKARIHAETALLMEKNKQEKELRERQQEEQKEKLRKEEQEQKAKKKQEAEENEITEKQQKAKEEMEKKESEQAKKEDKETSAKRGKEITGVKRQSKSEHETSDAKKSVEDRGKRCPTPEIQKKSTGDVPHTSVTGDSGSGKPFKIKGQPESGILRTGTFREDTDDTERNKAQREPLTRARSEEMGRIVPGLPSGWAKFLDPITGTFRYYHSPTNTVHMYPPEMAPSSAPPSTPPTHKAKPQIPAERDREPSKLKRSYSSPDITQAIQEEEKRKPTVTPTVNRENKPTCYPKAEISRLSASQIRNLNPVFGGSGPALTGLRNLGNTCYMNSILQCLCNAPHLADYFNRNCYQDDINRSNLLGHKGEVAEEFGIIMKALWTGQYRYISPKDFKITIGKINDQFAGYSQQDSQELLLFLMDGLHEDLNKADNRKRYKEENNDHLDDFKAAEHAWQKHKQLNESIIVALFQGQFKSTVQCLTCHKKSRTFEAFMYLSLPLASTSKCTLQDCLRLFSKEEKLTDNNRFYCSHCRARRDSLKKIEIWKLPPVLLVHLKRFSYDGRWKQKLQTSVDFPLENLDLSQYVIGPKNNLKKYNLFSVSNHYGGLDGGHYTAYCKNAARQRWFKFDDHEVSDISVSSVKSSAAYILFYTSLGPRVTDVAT
Hit rate of the full screen: of about 47,000 compounds, about 2,000 (4.3%) were called active. What follows is part of a selection rich in actives, with near analogues and random picks from the rest.
Give inhibition for every item shown.
Answers are plain numbers, in %.

Below, each entry is followed by its recorded inhibition result.
compound	tested_on	inhibition, %
CS(=O)(=O)c1ccc(CN2CCC3(C/C=C/Cc4ccccc4OCC(=O)NC3)CC2)cc1	Ubiquitin carboxyl-terminal hydrolase 8 (Homo sapiens) (UniProt P40818)	-3.81
Cc1ccc(NC(=O)Cn2cccc(S(=O)(=O)N3CCCCCC3)c2=O)c(C)c1	Ubiquitin carboxyl-terminal hydrolase 8 (Homo sapiens) (UniProt P40818)	-3.12
Cc1ccc(-c2nn(-c3ccccc3)cc2CNCc2cccnc2)cc1	Ubiquitin carboxyl-terminal hydrolase 8 (Homo sapiens) (UniProt P40818)	-268

Please report inhibition for every entry that follows.
1. N#Cc1ccccc1Cn1c(=O)n(CCCC(=O)NCc2ccc(F)cc2)c(=O)c2ccccc21
2. Cc1csc(C2(NC(=O)Cc3cc(C)on3)CCCC2)n1
3. O=C1c2ccccc2-c2nnc(-c3ccc(Oc4ccccc4)cc3)cc21

Result:
[15.6, 74.9, 14.8]

Please report inhibition for every entry that follows.
1. COc1ccccc1CNC(=O)c1c(O)c2cccnc2n(-c2ccccc2)c1=O
2. O=C(C1Cc2ccccc2CN1S(=O)(=O)c1ccc2c(c1)OCCO2)N1CCCC1 (stereo unspecified)
3. CC1[C@@H]2[C@@H](C(=O)N3CCOCC3)C[C@H](CN1S(=O)(=O)N(C)C)N2Cc1ccccc1 (stereo partly specified)
4. O=C(CCCn1c(=O)c2ccccc2n(Cc2ccccc2F)c1=O)NC1CCCC1
5. COc1cccc(NC(=O)Nc2nccn(-c3ccccc3)c2=O)c1
6. COc1cc(N2CC[C@@H]3[C@@H](CO[C@H]3CNc3ncccn3)C2)ncn1

Result:
1. 80.6
2. 1.43
3. 0.42
4. 5.2
5. 5.06
6. -92.4

Please report inhibition for every entry that follows.
1. O=C(Cc1ccc(Cl)cc1)NCC(=O)Nc1nc2ccccc2[nH]1
2. CC1Oc2ccccc2N(Cc2nc(-c3cccc(F)c3)no2)C1=O (stereo unspecified)
3. COc1ccc(CCNC(=O)CCCn2c(=O)c3ccccc3n(CC(=O)OCc3ccccc3)c2=O)cc1OC
4. Cc1cc(C)cc(NC(=O)Cn2cnc(-c3nc(C)cs3)c2)c1
5. CC(=O)c1ccc(NC(=O)Cn2c(=O)n(-c3ccccc3)c3ncccc32)cc1
6. COc1cccc(CNS(=O)(=O)c2cc(-c3cc(C)no3)ccc2OC)c1

Result:
-1.55
-3.17
1.77
-4.24
10.4
-16.2

Please report inhibition for every entry that follows.
1. N#Cc1cccc(CSc2ncnc(N)n2)c1
2. N#Cc1ccc(NC(=O)COC(=O)c2ccc3ccccc3n2)cc1
3. COc1ccccc1CNCc1c(C(=O)O)c(C)n(-c2ccccc2)c1C
4. COc1cccc(-n2c(=O)c(C(=O)NC(C)c3ccccc3)c(O)c3cccnc32)c1 (stereo unspecified)
5. NC(=O)c1ccc(NC(=O)Cc2cc(-c3ccc(Cl)cc3)on2)cc1
6. O=C1NC2(COC3(CCN(Cc4cccnc4)CC3)C2)Nc2ccc(Cl)cc21 (stereo unspecified)
7. N#Cc1ccc(NC(=O)Nc2cccn(Cc3ccccc3F)c2=O)cc1

Result:
1. 18.1
2. -17.7
3. 27.6
4. 81.5
5. 62.4
6. -202
7. 96.4

Please report inhibition for every entry that follows.
1. O=C(NCCC(=O)N1CCC2(CC1)NCCc1[nH]cnc12)c1ccc(-c2ccccc2)cc1
2. COc1ccccc1CNC(=O)c1ccc(-n2nc(C)c3c2CCCC3=O)cc1
3. CC(=O)c1ccc(NC(=O)c2cccc(-c3nc(-c4ccccc4)no3)c2)cc1
4. O=C(C1COc2ccccc2O1)N1CCN(c2nc(C(F)(F)F)nc3ccccc23)CC1 (stereo unspecified)
5. CC1CN(C(=O)c2ccc(-n3cccn3)c(C#Cc3ccccn3)c2)CC(C)O1 (stereo unspecified)
6. COc1cccc(-n2c(=O)[nH]c3c(C(N)=O)nc(-c4ccccn4)nc32)c1
7. Cc1nn(-c2ccccc2)c2c1C(C(=O)c1ccc(Cl)s1)CC(=O)N2 (stereo unspecified)
8. CCN1C(=O)c2ccccc2Sc2ccc(C(=O)NCc3ccc(OC)cc3OC)cc21

Result:
[34.7, 1.29, 8.62, 11.8, -93.1, -282, 10.5, 4.79]

Please report inhibition for every entry that follows.
1. c1cc(CNCc2ccc3c(c2)OCO3)ccn1
2. COc1cccc(CN2C(=O)c3ccccc3C2C(=O)NCc2ccccc2OC)c1 (stereo unspecified)
3. O=C(NCC(=O)N1CCC2(CC1)NCCc1[nH]cnc12)c1ccc(Br)cc1

Result:
1. 11
2. 34.7
3. 18.8

Values compiled from PubChem BioAssay AID1645853.
